Species: Rattus norvegicus
testDescription: Open TG-GATES - Regimen: Daily Repeat
Type: toxicity, organism-based, Sprague-Dawley
Design: regimen Daily Repeat, gender Male, age 6 weeks
testContext: in vivo, po, 300 mg/kg, […], tissue Plasma, route gavage, dose level Middle, time 28 day
recordedMetric: BUN (mg/dL)

> print(dat)
                                   compound  recordedmetric  experimentalresult
1  CCN1CCCC1CNC(=O)c1cc(S(N)(=O)=O)ccc1OC (centres undefined) [SULPIRIDE]             BUN                  17
2  O=C(N[C@H](CO)[C@H](O)c1ccc([N+](=O)[O-])cc1)C(Cl)Cl             BUN                  15
3                   CC(C)(S)[C@@H](N)C(=O)O             BUN                14.8
4                            O=C(O)c1cccnc1             BUN                  16
